// provenance: patent US20240123070A1

TCR Mut RLU/WT RLU values by entry
system: KRAS G13D antigen (G13D-RT6, SEQ ID NO: 20) loaded on Lovo-DPA0301:DPB0501 cells (human)
assay procedure: cell-based or functional assay
Report the figure in ratio without appending any unit label.

1. B8.2.4 TCR mutant β97V-F (TCR, V domains shown) V domain 1: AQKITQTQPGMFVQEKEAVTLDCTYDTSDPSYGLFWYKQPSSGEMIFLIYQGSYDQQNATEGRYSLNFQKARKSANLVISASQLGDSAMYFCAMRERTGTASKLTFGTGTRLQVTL V domain 2: DVKVTQSSRYLVKRTGEKVFLECVQDMDHENMFWYRQDPGLGLRLIYFSYDVKMKEKGDIPEGYSVSREKKERFSLILESASTNQTSMYLCASSQTFPPQHFGDGTRLSILE
0.31

TCR Mut RLU/WT RLU for B8.2.4 TCR mutant β97V-T (TCR, V domains shown) V domain 1: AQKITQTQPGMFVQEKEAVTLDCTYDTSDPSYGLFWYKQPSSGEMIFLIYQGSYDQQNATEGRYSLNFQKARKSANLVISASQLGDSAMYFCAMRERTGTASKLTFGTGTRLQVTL V domain 2: DVKVTQSSRYLVKRTGEKVFLECVQDMDHENMFWYRQDPGLGLRLIYFSYDVKMKEKGDIPEGYSVSREKKERFSLILESASTNQTSMYLCASSQTTPPQHFGDGTRLSILE ?
0.98

Would you kindly repeat that for B8.2.4 TCR mutant β98P-W (TCR, V domains shown) V domain 1: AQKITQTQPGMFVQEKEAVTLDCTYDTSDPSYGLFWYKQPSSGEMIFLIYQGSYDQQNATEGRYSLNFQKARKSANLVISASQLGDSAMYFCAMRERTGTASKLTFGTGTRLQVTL V domain 2: DVKVTQSSRYLVKRTGEKVFLECVQDMDHENMFWYRQDPGLGLRLIYFSYDVKMKEKGDIPEGYSVSREKKERFSLILESASTNQTSMYLCASSQTVWPQHFGDGTRLSILE ?
0.81
